Taken from patent US6759384.

Target: human factor Xa (Enzyme Research Laboratories, Inc.) (human, UniProt P00742 41-179; P00742 235-488, limits assumed)
Sequence (P00742 41-179 limits assumed, chain 1 of 2): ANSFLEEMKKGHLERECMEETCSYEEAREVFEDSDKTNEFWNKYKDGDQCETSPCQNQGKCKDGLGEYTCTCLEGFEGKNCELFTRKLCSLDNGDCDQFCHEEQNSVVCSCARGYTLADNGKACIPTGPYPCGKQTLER
Sequence (P00742 235-488 limits assumed, chain 2 of 2): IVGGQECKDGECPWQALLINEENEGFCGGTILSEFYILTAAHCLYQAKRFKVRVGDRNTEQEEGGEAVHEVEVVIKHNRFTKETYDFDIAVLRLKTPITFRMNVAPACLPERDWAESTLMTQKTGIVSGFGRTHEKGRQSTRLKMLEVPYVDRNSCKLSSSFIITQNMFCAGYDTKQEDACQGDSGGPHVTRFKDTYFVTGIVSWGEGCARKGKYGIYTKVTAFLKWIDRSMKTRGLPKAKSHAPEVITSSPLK
Experiment: chromogenic FXa inhibition
Method: TBS-P buffer (50 mM Tris-Cl, pH 7.8, 200 mM NaCl, 0.05% (w/v) PEG-8000, 0.02% (w/v) NaN_3) was used for this assay. […]
pKi: −log10 of the molar value. Starred links: 1 amine or outer side, 2 acyl side, 3 side chain; linkers in the order of their positions; H or OH if unused. Non-standard residues stand in square brackets, D forms with d. No end group written: not given here. Thr(Me) = O-methyl-threonine (source: T(Me)), CO[C@H](C)[C@H](N[*:1])C(=O)[*:2]

>  <binder>
Ac-Y[Thr(Me)]RLP-NH2 [Ac-Y-T(Me)-R-L-P-NH2]

>  <pKi>
> 4.00

$$$$
>  <binder>
XIRLP (N-term Tfa; N-(iBu) on Y1; C-term NH2) [Tfa-(iBu)Y-I-R-L-P-NH2]

>  <pKi>
> 4.00

$$$$
>  <binder>
[dY]IRGP-NH2 (also: R3-G4 (COCH2) bond replaces peptide bond) [y-I-R(COCH2)-G-P-NH2]

>  <pKi>
> 4.00

$$$$
>  <binder>
{(pOH)C6H4‑CH2CH2CO}-IRLA-NH2 [(pOH)C6H4-CH2CH2CO-I-R-L-A-NH2]

>  <pKi>
> 4.00

$$$$
